tested on: ACHN renal; test: NCI-60 one-dose screen, 48 h (100 = growth as untreated, 0 = no growth, -100 = all killed); details: 10 µM unless noted
This is part of a sample that, as a whole, favours compounds with a hit. Of some 83,000 tested, about 20% had one in any assay.
Please assign condition not met whenever growth is at or above 70%, and condition met whenever it is below.

FC(F)(F)Oc1ccc2c(c1)C[C@H]1C[C@@H](c3ccoc3)N2O1 ... condition not met
O=C1/C(=C/c2ccc(Oc3ccccc3)cc2)N=C(c2ccccc2)N1CCc1cccs1 ... condition not met
O=C(NCc1cccnc1)c1ccc([N+](=O)[O-])o1 ... condition met
Oc1ccc(Cl)cc1CNc1nc2ccccc2[nH]1 ... condition met
COc1cc(-c2nc3ccccc3o2)cc(CN2CCN(c3ccccc3)CC2)c1O ... condition not met
COc1ccc(-c2nc(Nc3ccc(F)cc3)nc(Nc3ccc4c(c3)nc(C)n4Cc3ccccc3)n2)cc1 ... condition met
COc1ccc(-c2nn(-c3ccc(NC(=O)c4ccc(Cl)c(Cl)c4)cc3)cc2-c2ccncc2)cc1Cl ... condition met
CCOC(=O)c1c(-c2cc(OC)c(OC)c(OC)c2)csc1N ... condition not met
Cc1nn(-c2ccccc2)c2nc3nc4c(c(N)c3c(-c3ccc(Cl)cc3)c12)CCC4 ... condition met
C[C@H]1C(=O)C23CCC1C[C@@]21O[C@@H]2C(C)(C)C=CC(=O)C23COC1=O ... condition not met
O=C(CCc1nnc2sc(-c3ccccc3)nn12)c1nc2ccccc2[nH]1 ... condition not met
CCN1CCN(c2ccc(Nc3ncc4ccc5ncn(C(C)C)c5c4n3)nc2)CC1 ... condition met
O=C1C(N2CCOCC2)=Cc2cccc3cccc1c23 ... condition not met
COc1ccc(C2CC(c3cc(OC)c(OC)c(OC)c3)=NN2c2ccc(S(N)(=O)=O)cc2)cc1 (stereo unspecified) ... condition not met
O=[N+]([O-])c1ccc(C=C2C(Cl)=C(Cl)C(Cl)=C2Cl)cc1 ... condition met
CCCCC/C=C\C/C=C/CCCCCCCCNC(=O)Nc1ccc([N+](=O)[O-])cc1 ... condition met
CCC(C)Oc1cc(/C=N/NC(=O)c2cnn3c2NC(c2ccccc2)C3)ccc1OC (stereo unspecified) ... condition met
O=C1Nc2ccc(Cl)cc2/C1=N/N=C(c1ccccc1)c1ccccc1 ... condition not met
COC(=O)/C=C1/CCC2C3CCC4=CC(=O)C(Br)CC4(C)C3C(=O)CC12C (stereo unspecified) ... condition not met
O=C1CC2c3cc(-c4cc5ccccc5o4)ccc3CCN2C(=O)N1c1ccccc1 (stereo unspecified) ... condition not met
O=c1oc2ccccc2cc1-c1csc(N=Nc2c(O)[nH]c3ccc(Cl)cc23)n1 ... condition not met
